The reported measurements were obtained from patent US7829665B2.

# reported IC50; entries follow
Molecular target: full-length NS3/NS4A-2 (HCV NS3 protease) (Hepatitis C virus genotype 1a, UniProt P27958)
Construct: Recombinant E. coli or Baculovirus full-length NS3 was diluted to 3.33 μM with assay buffer; made in house; host or cells: E. coli or baculovirus (BV) expression system
Sequence (P27958 1027-1657): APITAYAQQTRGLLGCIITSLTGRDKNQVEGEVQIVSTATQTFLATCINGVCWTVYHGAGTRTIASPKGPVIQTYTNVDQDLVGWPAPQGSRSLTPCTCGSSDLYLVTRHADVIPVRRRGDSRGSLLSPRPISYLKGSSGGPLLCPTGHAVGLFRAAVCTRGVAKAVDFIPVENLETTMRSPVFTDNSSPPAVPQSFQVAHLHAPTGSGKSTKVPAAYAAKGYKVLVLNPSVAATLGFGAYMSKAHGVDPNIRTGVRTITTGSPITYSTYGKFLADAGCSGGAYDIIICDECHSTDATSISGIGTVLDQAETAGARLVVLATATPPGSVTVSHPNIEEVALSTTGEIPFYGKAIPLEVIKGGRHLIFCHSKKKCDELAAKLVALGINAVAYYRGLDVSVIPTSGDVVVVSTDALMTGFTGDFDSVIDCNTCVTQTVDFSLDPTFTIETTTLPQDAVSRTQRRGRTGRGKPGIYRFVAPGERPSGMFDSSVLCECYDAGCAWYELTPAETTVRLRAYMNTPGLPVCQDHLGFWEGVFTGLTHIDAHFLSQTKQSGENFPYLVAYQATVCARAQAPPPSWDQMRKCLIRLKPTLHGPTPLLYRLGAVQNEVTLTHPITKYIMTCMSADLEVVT
Experiment: NS3-NS4 protease assay / NS3 inhibition assay (RETS1 substrate, fluorescence kinetic read)
Assay type: biochemical
Conditions: recombinant E. coli or Baculovirus full-length NS3 with NS4A-2; read-out: NS3-NS4 IC50

CC(C)(C)OC(=O)N[C@H]1CCCCC/C=C\[C@@H]2C[C@@]2(C(=O)NC(=O)N2CCOCC2)NC(=O)[C@@H]2C[C@@H](OC(=O)N3Cc4cccc(F)c4C3)CN2C1=O; < 100 nM

// fetch full-length NS3/NS4A-2 (HCV NS3 protease) (Hepatitis C virus genotype 1a, UniProt P27958) IC50 for `CCOC(=O)[C@@]12C[C@H]1/C=C\CCCCC[C@H](N)C(=O)N1C[C@H](OC(=O)N3Cc4ccccc4C3)C[C@H]1C(=O)N2`
< 1000 nM

// fetch full-length NS3/NS4A-2 (HCV NS3 protease) (Hepatitis C virus genotype 1a, UniProt P27958) IC50 for `O=C(N[C@H](C(=O)N[C@H]1CCCCC/C=C\[C@@H]2C[C@@]2(C(=O)NS(=O)(=O)C2CC2)NC(=O)[C@@H]2C[C@@H](OC(=O)N3Cc4cccc(Cl)c4C3)CN2C1=O)C1CCCCC1)c1cnccn1`
< 100 nM

// fetch full-length NS3/NS4A-2 (HCV NS3 protease) (Hepatitis C virus genotype 1a, UniProt P27958) IC50 for `CN(C)S(=O)(=O)NC(=O)[C@@]12C[C@H]1CCCCC(F)(F)CC[C@H](NC(=O)OC(C)(C)C)C(=O)N1C[C@H](OC(=O)N3Cc4cccc(F)c4C3)C[C@H]1C(=O)N2`
< 100 nM

// fetch full-length NS3/NS4A-2 (HCV NS3 protease) (Hepatitis C virus genotype 1a, UniProt P27958) IC50 for `Cc1ccc(NS(=O)(=O)NC(=O)[C@@]23C[C@H]2/C=C\CCCCC[C@H](NC(=O)OC(C)(C)C)C(=O)N2CCC[C@H]2C(=O)N3)cc1`
< 1000 nM
